# assay_text: Photophysical property of the compound assessed as fluorescence quantum yield by UV-vis spectrophotometric analysis
# Type: physicochemical
parameter_measured: Activity
Could you respond with only the numeric value?

Illustrative cases are given below, each with its answer.
structure_smiles_string	reported_value
[Br-].[Br-].[Br-].[Br-].c1cc[n+](CCCCCOc2ccc(-c3c4nc(c(-c5ccc(OCCCCC[n+]6ccccc6)cc5)c5[nH]c(c(-c6ccc(OCCCCC[n+]7ccccc7)cc6)c6nc(c(-c7ccc(OCCCCC[n+]8ccccc8)cc7)c7[nH]c3c3cc8ccccc8cc73)-c3cc7ccccc7cc3-6)c3cc6ccccc6cc53)-c3cc5ccccc5cc3-4)cc2)cc1	0.08
[Br-].[Br-].[Br-].[Br-].c1cc[n+](CCCOc2ccc(-c3c4nc(c(-c5ccc(OCCC[n+]6ccccc6)cc5)c5[nH]c(c(-c6ccc(OCCC[n+]7ccccc7)cc6)c6nc(c(-c7ccc(OCCC[n+]8ccccc8)cc7)c7[nH]c3c3cc8ccccc8cc73)-c3cc7ccccc7cc3-6)c3cc6ccccc6cc53)-c3cc5ccccc5cc3-4)cc2)cc1	0.07

Now look at this entry.
Can you look up the measured Activity of `C[N+](C)(C)CCCCOc1ccc(-c2c3nc(c(-c4ccc(OCCCC[N+](C)(C)C)cc4)c4[nH]c(c(-c5ccc(OCCCC[N+](C)(C)C)cc5)c5nc(c(-c6ccc(OCCCC[N+](C)(C)C)cc6)c6[nH]c2c2cc7ccccc7cc62)-c2cc6ccccc6cc2-5)c2cc5ccccc5cc42)-c2cc4ccccc4cc2-3)cc1.[Br-].[Br-].[Br-].[Br-]` for me?
0.08

---

# assay_text: Dark cytotoxicity against human HaCaT cells assessed as cell viability at 16 uM preincubated for 15 mins by MTT assay
# Type: toxicity, cell-based
# assay_setup: read-out: Activity
parameter_measured: viability at 0.25 h, 16 µM

Solved cases below.
structure_smiles_string	viability at 0.25 h, 16 µM
CC[N+](C)(CC)CCCOc1ccc(-c2c3nc(c(-c4ccc(OCCC[N+](C)(CC)CC)cc4)c4[nH]c(c(-c5ccc(OCCC[N+](C)(CC)CC)cc5)c5nc(c(-c6ccc(OCCC[N+](C)(CC)CC)cc6)c6[nH]c2c2cc7ccccc7cc62)-c2cc6ccccc6cc2-5)c2cc5ccccc5cc42)-c2cc4ccccc4cc2-3)cc1.[Br-].[Br-].[Br-].[Br-]	> 80%
[Br-].[Br-].[Br-].[Br-].c1cc[n+](CCCOc2ccc(-c3c4nc(c(-c5ccc(OCCC[n+]6ccccc6)cc5)c5[nH]c(c(-c6ccc(OCCC[n+]7ccccc7)cc6)c6nc(c(-c7ccc(OCCC[n+]8ccccc8)cc7)c7[nH]c3c3cc8ccccc8cc73)-c3cc7ccccc7cc3-6)c3cc6ccccc6cc53)-c3cc5ccccc5cc3-4)cc2)cc1	> 80%

Shifting focus to the molecule that follows.
// query viability at 0.25 h, 16 µM value for entry `C[N+](C)(C)CCCOc1ccc(-c2c3nc(c(-c4ccc(OCCC[N+](C)(C)C)cc4)c4[nH]c(c(-c5ccc(OCCC[N+](C)(C)C)cc5)c5nc(c(-c6ccc(OCCC[N+](C)(C)C)cc6)c6[nH]c2c2cc7ccccc7cc62)-c2cc6ccccc6cc2-5)c2cc5ccccc5cc42)-c2cc4ccccc4cc2-3)cc1.[Br-].[Br-].[Br-].[Br-]`
> 80%

---

# System: Staphylococcus aureus
# assay_text: Antibacterial activity against Staphylococcus aureus assessed as bacterial growth inhibition preincubated with compound for 15 mins followed by light irradiated with 730 nm, 40 J/cm2 and measured after 24 hrs by broth microdilution method
# Type: functional
# assay_setup: light or radiation study, 24.25 h, time 1455 min
Documented MIC across a set of compounds
# number only, unit µM dropped from output

Given `C[N+](C)(C)CCCCCCOc1ccc(-c2c3nc(c(-c4ccc(OCCCCCC[N+](C)(C)C)cc4)c4[nH]c(c(-c5ccc(OCCCCCC[N+](C)(C)C)cc5)c5nc(c(-c6ccc(OCCCCCC[N+](C)(C)C)cc6)c6[nH]c2c2cc7ccccc7cc62)-c2cc6ccccc6cc2-5)c2cc5ccccc5cc42)-c2cc4ccccc4cc2-3)cc1.[Br-].[Br-].[Br-].[Br-]` , state its recorded MIC.
16

Fill in the blank: the reported MIC of `CC[N+](C)(CC)CCCOc1ccc(-c2c3nc(c(-c4ccc(OCCC[N+](C)(CC)CC)cc4)c4[nH]c(c(-c5ccc(OCCC[N+](C)(CC)CC)cc5)c5nc(c(-c6ccc(OCCC[N+](C)(CC)CC)cc6)c6[nH]c2c2cc7ccccc7cc62)-c2cc6ccccc6cc2-5)c2cc5ccccc5cc42)-c2cc4ccccc4cc2-3)cc1.[Br-].[Br-].[Br-].[Br-]` is ____.
8

# input compound: `CC[N+](C)(CC)CCCCCCOc1ccc(-c2c3nc(c(-c4ccc(OCCCCCC[N+](C)(CC)CC)cc4)c4[nH]c(c(-c5ccc(OCCCCCC[N+](C)(CC)CC)cc5)c5nc(c(-c6ccc(OCCCCCC[N+](C)(CC)CC)cc6)c6[nH]c2c2cc7ccccc7cc62)-c2cc6ccccc6cc2-5)c2cc5ccccc5cc42)-c2cc4ccccc4cc2-3)cc1.[Br-].[Br-].[Br-].[Br-]` ; wanted: its MIC
64
